# subject.of.test: D614G Spike (SARS-CoV2)
The reader will find reported Response values listed item by item below.
No unit in the answer, only the number.

Q) Which Response is reported for this binder? Ab_27 scFv-Fc (scFv, V domains shown) VH: QVQLVQSGTEVKKPGASVKVSCKASGYSFTGSHLHWVRQAPGQGLEWMGWINPDSGVINYAQKFQGRVTLTRDTSISTAYMELSGLRSDDTAVYYCARDKAIGYVWALDYWGQGTLVTVSS VL: QSALTQPPSVSGSPGQSVTISCTGTSSDVGTYNRVSWYQQPPGKAPKLMIYEVSNRPSGVSNRFSGSKSGNTASLTISGLQAEDEADYYCSSYTRTFTYVFGTGTKVTVL
A) 0.276

Q) Recorded Response of S1-RBD-R3-T1-C7 Ab (Ab_29) scFv-Fc (scFv, V domains shown) VH: QVQLQQSGPGLVKPSQTLSLTCAISGDSVSSYSDAWNWIRQSPSRGLEWLGRTYYRSKWYNDYAVSVKSRITINPDTSKNQFSLQLSSVTPEDTAVYYCAREIVATTPFRNYYYGMDVWGQGTTVTVSS VL: NFMLTQPHSVSESPGNTVTISCTRTSGSIASNYVQWYQQRPGSSPTTVIFQDKLRPSGVPDRFSGSIDSSSNSASLTISGLKTEDEADYYCQSYDSSSLWVFGGGTKLTVL , please.
A) 0.202
